Biological target: 2S-hsINTS13-hsINTS14 (human, UniProt Q9NVM9;Q96SY0)
Sequence (Q9NVM9 whole entry, chain 1 of 2): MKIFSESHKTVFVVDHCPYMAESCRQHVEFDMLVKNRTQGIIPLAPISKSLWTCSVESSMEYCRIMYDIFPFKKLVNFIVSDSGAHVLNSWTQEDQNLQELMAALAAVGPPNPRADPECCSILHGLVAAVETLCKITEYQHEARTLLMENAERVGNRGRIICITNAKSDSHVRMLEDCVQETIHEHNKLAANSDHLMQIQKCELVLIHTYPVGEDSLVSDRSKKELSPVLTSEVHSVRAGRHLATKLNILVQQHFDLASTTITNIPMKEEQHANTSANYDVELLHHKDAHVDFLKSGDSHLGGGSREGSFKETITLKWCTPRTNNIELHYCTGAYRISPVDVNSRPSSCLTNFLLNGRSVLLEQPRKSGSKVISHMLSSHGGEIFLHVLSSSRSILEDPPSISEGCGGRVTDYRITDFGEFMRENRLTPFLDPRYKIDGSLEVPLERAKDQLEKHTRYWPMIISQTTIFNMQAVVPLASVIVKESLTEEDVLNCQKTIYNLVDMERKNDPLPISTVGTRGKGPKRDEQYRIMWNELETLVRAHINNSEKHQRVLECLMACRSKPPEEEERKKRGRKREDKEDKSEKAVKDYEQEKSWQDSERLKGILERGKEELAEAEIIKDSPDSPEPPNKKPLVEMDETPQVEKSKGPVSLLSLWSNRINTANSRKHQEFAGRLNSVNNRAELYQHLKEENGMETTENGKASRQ
Sequence (Q96SY0 whole entry, chain 2 of 2): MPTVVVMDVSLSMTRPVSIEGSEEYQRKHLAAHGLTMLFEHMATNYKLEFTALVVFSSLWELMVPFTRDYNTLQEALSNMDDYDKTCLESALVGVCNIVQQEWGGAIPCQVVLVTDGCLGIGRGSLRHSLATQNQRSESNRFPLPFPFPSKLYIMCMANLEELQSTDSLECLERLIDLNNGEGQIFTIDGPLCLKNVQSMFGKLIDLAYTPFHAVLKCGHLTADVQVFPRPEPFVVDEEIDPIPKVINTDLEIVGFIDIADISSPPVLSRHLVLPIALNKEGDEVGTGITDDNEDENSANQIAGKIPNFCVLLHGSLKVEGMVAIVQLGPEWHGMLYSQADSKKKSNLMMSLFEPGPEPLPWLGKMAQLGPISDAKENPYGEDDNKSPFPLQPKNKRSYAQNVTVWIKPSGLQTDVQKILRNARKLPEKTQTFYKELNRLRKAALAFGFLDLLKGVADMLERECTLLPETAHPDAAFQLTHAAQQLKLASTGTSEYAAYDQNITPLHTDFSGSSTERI
Experiment: fluorescence polarisation
metric: pKd
One number for each entry, as −log10 of the molar value.

The following binders have reported results that may help.
> print(dat)
                                     binder  recorded.result
1  EGSSDEEGKLVIDEPAK [GFP-hsHDGF (130-146)]             5.23
2  DEWDIGVGNLIIDLDAD [GFP-hsZNF609 (25-41)]             6.24

// moving on: another record for pKd
The binder EDRLERLQEILRKFLYLEREFRQITIS [GFP-hsZNF655 (93-119)] showed pKd equal to 7.75
